Test system: Escherichia coli
Protocol Summary: Antibacterial activity against Escherichia coli TG1 incubated for 12 hrs by microdilution method
Format: functional
Bridges are numbered along the chain shown (N, C = ends). Roman numbers before positions name the chains, in order.
Metric Name: MIC (µM)
Respond with the bare value in µM.

Example substances with recorded MIC:
Substance	Measurement Unit	Reading
I: H-ALLKRIKTLLKK-NH2 / II: H-ALLKRIKTLLK / III: H-ALLKRIKTLL / IV: H-ALLKRIKTLL (amide I:11-IV:C, I:12-II:C, II:11-III:C)	µM	25
I: H-GIIDIAKKLFESWKK-NH2 / II: H-GIIDIAKKLFESWK / III: H-GIIDIAKKLFESW / IV: H-GIIDIAKKLFESW (amide I:14-IV:C, I:15-II:C, II:14-III:C)	µM	12.5
I: H-LSAAHSLAIGRRKK-NH2 / II: H-LSAAHSLAIGRRK / III: H-LSAAHSLAIGRR / IV: H-LSAAHSLAIGRR (amide I:13-IV:C, I:14-II:C, II:13-III:C)	µM	25
I: H-TLLKKVLKAAAKKK-NH2 / II: H-TLLKKVLKAAAKK / III: H-TLLKKVLKAAAK / IV: H-TLLKKVLKAAAK (amide I:13-IV:C, I:14-II:C, II:13-III:C)	µM	1.5
I: H-KLLKFIKTLLKK-NH2 / II: H-KLLKFIKTLLK / III: H-KLLKFIKTLL / IV: H-KLLKFIKTLL (amide I:11-IV:C, I:12-II:C, II:11-III:C)	µM	12.5

The value of MIC measured for the substance I: H-LSAARSLAIGRRKK-NH2 / II: H-LSAARSLAIGRRK / III: H-LSAARSLAIGRR / IV: H-LSAARSLAIGRR (amide I:13-IV:C, I:14-II:C, II:13-III:C) turned out to be 12.5

# MIC (substance: I: H-GRFKRFRKKLKK-NH2 / II: H-GRFKRFRKKLK / III: H-GRFKRFRKKL / IV: H-GRFKRFRKKL (amide I:11-IV:C, I:12-II:C, II:11-III:C) ) is 6

###

Protocol Summary: Stability of compound in human serum at 180 uM measured after 4 hrs by HPLC-MS analysis
Type: ADME, cell-free
Bridges are numbered along the chain shown (N, C = ends). Roman numbers before positions name the chains, in order.
Metric Name: Stability

Answered examples (7):
Substance	Stability
H-LLKKVLKAAAK-OH	Unstable
I: H-GRFKRFRKKLKK-NH2 / II: H-GRFKRFRKKLK / III: H-GRFKRFRKKL / IV: H-GRFKRFRKKL (amide I:11-IV:C, I:12-II:C, II:11-III:C)	Stable
I: H-TLLKKVLKAAAKKK-NH2 / II: H-TLLKKVLKAAAKK / III: H-TLLKKVLKAAAK / IV: H-TLLKKVLKAAAK (amide I:13-IV:C, I:14-II:C, II:13-III:C)	Stable
H-KKLLGKNWKLM-OH	Unstable
H-TLLKKVLKAAAK-OH	Stable
I: H-KKLLGKNWKLMKK-NH2 / II: H-KKLLGKNWKLMK / III: H-KKLLGKNWKLM / IV: H-KKLLGKNWKLM (amide I:12-IV:C, I:13-II:C, II:12-III:C)	Stable
I: H-LLKKVLKAAAKKK-NH2 / II: H-LLKKVLKAAAKK / III: H-LLKKVLKAAAK / IV: H-LLKKVLKAAAK (amide I:12-IV:C, I:13-II:C, II:12-III:C)	Stable

// recorded Stability for H-GRFKRFRKKL-OH : Stable
